Values compiled from patent US20240217951A1.

# experimentalSystem: potassium ion channel hERG (human Ether-á-go-go-Related Gene) (Homo sapiens)
# Sequence (Q12809 whole entry): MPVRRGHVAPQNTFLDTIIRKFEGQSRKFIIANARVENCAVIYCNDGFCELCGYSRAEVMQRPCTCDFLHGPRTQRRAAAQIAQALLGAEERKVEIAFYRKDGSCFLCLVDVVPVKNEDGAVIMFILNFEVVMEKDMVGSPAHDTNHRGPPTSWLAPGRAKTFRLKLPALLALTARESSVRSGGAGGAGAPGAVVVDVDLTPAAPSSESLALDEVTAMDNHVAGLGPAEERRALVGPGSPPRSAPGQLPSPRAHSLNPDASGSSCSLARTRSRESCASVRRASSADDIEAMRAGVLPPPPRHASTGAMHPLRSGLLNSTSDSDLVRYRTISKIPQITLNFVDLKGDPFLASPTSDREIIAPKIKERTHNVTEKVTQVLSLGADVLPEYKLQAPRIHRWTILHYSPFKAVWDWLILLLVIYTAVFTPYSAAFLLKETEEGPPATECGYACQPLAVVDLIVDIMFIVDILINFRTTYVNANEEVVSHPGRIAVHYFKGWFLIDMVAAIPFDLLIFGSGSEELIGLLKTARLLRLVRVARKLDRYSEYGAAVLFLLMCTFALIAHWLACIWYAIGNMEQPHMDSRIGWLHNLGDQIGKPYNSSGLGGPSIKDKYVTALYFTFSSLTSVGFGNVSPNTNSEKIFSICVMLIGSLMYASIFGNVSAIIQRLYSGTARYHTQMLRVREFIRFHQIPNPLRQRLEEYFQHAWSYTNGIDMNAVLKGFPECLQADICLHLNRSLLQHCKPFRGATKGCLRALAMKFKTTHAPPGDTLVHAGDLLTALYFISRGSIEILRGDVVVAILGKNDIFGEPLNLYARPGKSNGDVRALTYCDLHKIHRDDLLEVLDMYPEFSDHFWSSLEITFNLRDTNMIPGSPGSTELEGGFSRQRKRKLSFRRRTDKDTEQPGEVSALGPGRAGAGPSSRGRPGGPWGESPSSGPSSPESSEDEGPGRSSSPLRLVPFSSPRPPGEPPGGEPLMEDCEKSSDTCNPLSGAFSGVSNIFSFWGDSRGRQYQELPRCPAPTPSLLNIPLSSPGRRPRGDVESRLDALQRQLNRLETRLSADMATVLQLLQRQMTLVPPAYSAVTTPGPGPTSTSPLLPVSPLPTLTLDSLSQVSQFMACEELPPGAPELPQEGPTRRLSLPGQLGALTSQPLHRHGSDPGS
# assayInfo: Assay 5 - hERG assay (SyncroPatch 384PE patch clamp, CHO cells)
# particulars: geometric mean; CHO cells over-expressing hERG; read-out: Assay 5 (hERG Hu CHO IF EPh CR-Syncro) GMean IC50
measurementLabel: IC50

Worked set:
compound	measurementLabel	recordedResult
Cc1cnc(N[C@H]2CC[C@H](Nc3ccc(N4C(=O)CCc5ccccc54)cn3)C2)cn1 [Example 274]	IC50	17.1 µM
Cc1cnc(N[C@H]2CC[C@H](Nc3ccc(N4CC(=O)N(C)C4=O)cn3)C2)cn1 [Example 39]	IC50	> 40 µM
CN1CC(=O)N(c2ccc(N[C@H]3CC[C@H](Nc4cnc(Cl)cn4)C3)nc2)C1=O [Example 100]	IC50	> 40.1 µM
O=c1ccc(-c2nnn[nH]2)cn1-c1ccc(N[C@H]2CC[C@H](Nc3cnc(OC(F)F)cn3)C2)nc1 [Example 178]	IC50	> 40.1 µM
Cc1ncc(N[C@H]2CC[C@H](Nc3ccc(-n4cc(-c5nnn[nH]5)ccc4=O)cn3)C2)nc1C [Example 176]	IC50	> 40.1 µM
Cc1cnc(N[C@H]2CC[C@H](Nc3ccc(-n4ccccc4=O)cn3)C2)cn1 [Example 4]	IC50	> 40 µM
Cc1cnc(N[C@H]2CC[C@H](Nc3ccc(-n4nccc(Cl)c4=O)cn3)C2)cn1 [Example 232]	IC50	39.9 µM
CN1C(=O)CN(c2ccc(N[C@H]3CC[C@H](Nc4cnc(OC(F)F)cn4)C3)nc2)C1=O [Example 92]	IC50	4.4 µM

# input Find the measured IC50: item Cc1cnc(N[C@H]2CC[C@H](Nc3ccc(-n4c(=O)n(C)c5ccc(C#N)cc54)cn3)C2)cn1 [Example 215] , target or system potassium ion channel hERG (human Ether-á-go-go-Related Gene) (Homo sapiens).
# output 16 µM

# input Can you handle N#Cc1ccc(=O)n(-c2ccc(N[C@H]3CC[C@H](Nc4cnc(OC(F)F)cn4)C3)nc2)c1 [Example 89] next?
# output 6.8 µM

# input What do you have for O=c1ccc2cccnc2n1-c1ccc(N[C@H]2CC[C@H](Nc3cnc(Cl)cn3)C2)nc1 [Example 34] ?
# output 15.4 µM

# input Input Cc1cnc(N[C@H]2CC[C@H](Nc3ccc(-n4c(=O)ccc5cccnc54)cn3)C2)cn1 [Example 37]
# output > 40 µM

# input Proceed to Cc1cnc(N[C@H]2CC[C@H](Nc3ccc(-n4cccc(C#N)c4=O)cn3)C2)cn1 [Example 103]
# output > 40.1 µM

# input Here is the next compound: Cc1cnc(N[C@H]2CC[C@H](Nc3ccc(N4C(=O)CCc5cccnc54)cn3)C2)cn1 [Example 276]
# output > 40 µM

# input And the next one, Cc1cnc(N[C@H]2CC[C@H](Nc3ccc(-n4cc(-c5c[nH]nn5)ccc4=O)cn3)C2)cn1 [Example 209] ?
# output > 40.1 µM

# input N#Cc1cccn(-c2ccc(N[C@H]3CC[C@H](Nc4cnc(Cl)cn4)C3)nc2)c1=O [Example 101] , same question.
# output 19.4 µM

# input And the next one, O=C1[C@@H]2OCC[C@@H]2CCN1c1ccc(N[C@H]2CC[C@H](Nc3cnc(OC(F)F)cn3)C2)nc1 [Example 78] ?
# output > 40 µM
